Tested on: HAP1 MTAP-intact cell line
Assay: SDMA in-cell western assay, HAP1 MTAP-intact
Assay type: cell-based
Settings: Homo sapiens, HAP1, SDMA in-cell western, HAP1 MTAP-intact; read-out: MTAP HAP1 intact IC50
measured-quantity: IC50

Task: Provide the documented IC50 with HAP1 MTAP-intact cell line as the system for CCc1cc(NC(=O)C(=O)N2C[C@@H](C)CC[C@@H]2c2ccc3sc(C4(F)CCN(C)CC4)nc3c2)cnc1N [Compound 1160]
Output: < 100 nM

Task: Query IC50 on HAP1 MTAP-intact cell line for CCc1cc(NC(=O)C(=O)N2C[C@H](C)C(F)(F)C[C@H]2c2ccc(F)c(F)c2)cnc1N (single isomer, unassigned) [Compound 728]
Output: > 1000 nM

Task: API: value(readout=IC50, system=HAP1 MTAP-intact cell line) for record C[C@H]1CC[C@H](c2ccc3c(c2)OCCN3)N(C(=O)C(=O)Nc2cncc(C(N)=O)c2)C1 (single isomer, unassigned) [Compound 598]
Output: > 1000 nM

Task: Look up IC50 with HAP1 MTAP-intact cell line for this compound: C[C@@H]1CC[C@@H](c2ccc3c(c2)C[C@H](C)O3)N(C(=O)C(=O)Nc2cncc(C(N)=O)c2)C1 (single isomer, unassigned) [Compound 345]
Output: > 1000 nM

Task: Under HAP1 MTAP-intact cell line: IC50 value of Cc1cc(NC(=O)C(=O)N2C[C@@H](C)CC[C@@H]2c2ccc3sc([C@H]4CCN(C)C(C)(C)C4)nc3c2)cnc1C (single isomer, unassigned) [Compound 1135] ?
Output: 100 to 1000 nM

Task: Param readout = IC50; param system = HAP1 MTAP-intact cell line; param query = COc1ncc(NC(=O)C(=O)N2C[C@@H](C)CC[C@@H]2c2cc3cn[nH]c3s2)cc1C(N)=O (single isomer, unassigned) [Compound 968] ; response: value
Output: 100 to 1000 nM

Task: Notebook: pull reported IC50 for HAP1 MTAP-intact cell line, entry CCc1ccc([C@H]2CC[C@H](C)CN2C(=O)C(=O)Nc2cnc(N)c(C)c2)cn1 (single isomer, unassigned) [Compound 1016]
Output: > 1000 nM

Task: Give recorded IC50 with HAP1 MTAP-intact cell line for the following compound: CCc1cc(NC(=O)C(=O)N2C[C@@H](C)CC[C@@H]2c2ccc(N3CCC(CN4CCCC4)CC3)cc2)cnc1N [Compound 1276]
Output: 100 to 1000 nM

Task: So what IC50 did C[C@@H]1CC[C@@H](c2cncc(F)c2)N(C(=O)C(=O)Nc2cncc(C(N)=O)c2)C1 (racemic) [Compound 248] get with HAP1 MTAP-intact cell line?
Output: > 1000 nM

Task: Provide the documented IC50 with HAP1 MTAP-intact cell line as the system for Cc1cc(NC(=O)C(=O)N2C[C@@H](C)CC[C@@H]2c2cn[nH]c2)cnc1N (single isomer, unassigned) [Compound 941]
Output: 100 to 1000 nM

Task: Checklist item: IC50 tested on HAP1 MTAP-intact cell line, entry Cc1cc(NC(=O)C(=O)N2C[C@H](C)CC[C@H]2c2ccc3cn[nH]c3c2)cnc1N (stereo in doubt) [Compound 613] , value?
Output: > 1000 nM

Task: Given the entry Cc1cc(NC(=O)C(=O)N2C[C@@H](C)CC[C@@H]2c2ccc3c(c2)CCNC3=O)cnc1N (single isomer, unassigned) [Compound 988] , what IC50 was observed with HAP1 MTAP-intact cell line?
Output: > 1000 nM

* * *

Biological target: PRMT5 (Homo sapiens, UniProt O14744)
Construct: purchased Viva (custom protein)
Sequence (O14744 whole entry): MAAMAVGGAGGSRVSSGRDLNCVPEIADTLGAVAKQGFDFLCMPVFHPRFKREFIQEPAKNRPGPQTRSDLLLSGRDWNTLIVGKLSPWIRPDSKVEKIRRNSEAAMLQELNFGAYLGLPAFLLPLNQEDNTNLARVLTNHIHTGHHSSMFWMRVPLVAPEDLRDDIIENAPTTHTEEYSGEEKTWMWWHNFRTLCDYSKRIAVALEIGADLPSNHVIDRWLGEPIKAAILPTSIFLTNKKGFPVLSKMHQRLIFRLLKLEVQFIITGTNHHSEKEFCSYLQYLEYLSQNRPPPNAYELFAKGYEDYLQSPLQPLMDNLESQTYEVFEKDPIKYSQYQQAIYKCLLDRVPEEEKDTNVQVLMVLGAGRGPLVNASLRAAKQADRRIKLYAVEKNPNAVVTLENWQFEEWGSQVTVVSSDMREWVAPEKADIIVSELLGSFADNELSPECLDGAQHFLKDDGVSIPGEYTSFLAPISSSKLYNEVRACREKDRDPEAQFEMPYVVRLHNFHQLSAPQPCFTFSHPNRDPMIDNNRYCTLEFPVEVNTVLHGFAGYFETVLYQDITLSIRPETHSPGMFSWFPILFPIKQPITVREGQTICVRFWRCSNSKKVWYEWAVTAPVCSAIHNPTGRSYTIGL
Sequence (Q9BQA1 whole entry partner): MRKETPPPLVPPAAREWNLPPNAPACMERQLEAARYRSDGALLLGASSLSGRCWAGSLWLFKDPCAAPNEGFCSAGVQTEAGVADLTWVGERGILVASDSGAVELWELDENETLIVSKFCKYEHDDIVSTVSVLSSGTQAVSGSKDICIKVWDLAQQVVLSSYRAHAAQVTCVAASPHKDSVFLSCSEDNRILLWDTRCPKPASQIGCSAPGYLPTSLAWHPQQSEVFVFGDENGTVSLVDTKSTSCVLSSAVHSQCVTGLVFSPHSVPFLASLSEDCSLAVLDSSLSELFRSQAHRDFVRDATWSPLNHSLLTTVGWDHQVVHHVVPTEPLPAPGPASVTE
Assay: PRMT5 biochemical IC50 assay with SAM as cofactor
Conditions: PRMT5, SAM as cofactor; read-out: SAM IC50
measured-quantity: IC50

Task: Look at this compound and give its reported IC50. Cc1cc(NC(=O)C(=O)N2CCCC[C@H]2c2ccc3[nH]ncc3c2)cnc1N (single isomer, unassigned)
Output: 50 to 500 nM

Task: Need IC50, item C[C@H]1CC[C@H](c2ccc3sccc3c2)N(C(=O)C(=O)Nc2cncc(C(N)=O)c2)C1 (single isomer, unassigned)
Output: < 50 nM

Task: Suppose we examine the compound "Cc1ncc(NC(=O)C(=O)N2C[C@@H](C)CC[C@@H]2c2ccc3sc(C4CCN(C)CC4)nc3c2)cc1C1COC1" ; what IC50 value has been reported?
Output: < 50 nM

Task: May I ask what IC50 has been recorded for Cc1cc(NC(=O)C(=O)N2C[C@@H](C)CC[C@@H]2c2cccc3c2CCN3)cnc1N (single isomer, unassigned) ?
Output: > 500 nM

Task: Consider the compound shown here: COc1ncc(NC(=O)C(=O)N2C[C@@H](C)CC[C@H]2c2ccc(C)cn2)cc1C(N)=O (racemic) What is its recorded IC50?
Output: > 500 nM

Task: For Cc1cncc(NC(=O)C(=O)N2C[C@H](C)CC[C@H]2c2cccc(C)c2)c1 (single isomer, unassigned) [Compound 10] , what is its reported IC50?
Output: 50 to 500 nM

Task: Please look up its IC50: CCc1cc(NC(=O)C(=O)N2CC(C)CCC2c2ccc3sc(C4CCN(C)CC4C)nc3c2)cnc1N (racemic) [Compound 1373]
Output: < 50 nM

Task: Record request: IC50 value, item Cc1cc(NC(=O)C(=O)N2C[C@@H](C)CC[C@@H]2c2ccc3sc([C@H]4CCN(C)C(C)(C)C4)nc3c2)cnc1C (single isomer, unassigned) [Compound 1135]
Output: < 50 nM

Task: Consider the compound shown here: Cc1cc(NC(=O)C(=O)N2C[C@@H](C)[C@@H](CC(C)C)C[C@@H]2c2ccc3scnc3c2)cnc1N (single isomer, unassigned) What is its recorded IC50?
Output: > 500 nM

Task: Find the recorded IC50 belonging to C[C@H]1CC[C@H](c2ccc(NS(C)(=O)=O)cc2)N(C(=O)C(=O)Nc2cncc(C(N)=O)c2)C1 (single isomer, unassigned) and report it.
Output: 50 to 500 nM

Task: Name the recorded IC50 for C[C@@H]1CC[C@@H](c2ccc(OC(F)F)cc2)N(C(=O)C(=O)Nc2cncc(C(N)=O)c2)C1 (racemic) .
Output: 50 to 500 nM

Task: Entry COCCc1nc2cc([C@H]3CC[C@H](C)CN3C(=O)C(=O)Nc3cnc(N)c(C4CC4)c3)ccc2s1 (single isomer, unassigned) has what IC50?
Output: > 500 nM

Task: Given the entry [2H][C@]1(c2ccc(F)cc2)CC[C@H](C)CN1C(=O)C(=O)Nc1cncc(C(N)=O)c1 (racemic) , report its measured IC50.
Output: 50 to 500 nM

* * *

Would you mind telling me the reported pIC50 of each entry?
Biological target: PRMT5 (Homo sapiens, UniProt O14744)
Construct: purchased Viva (custom protein)
Assay: PRMT5 biochemical IC50 assay with no cofactor
Conditions: PRMT5, no cofactor; read-out: No Cofactor/ rel IC50
pIC50: −log10 of the molar value.

Task: Which measured pIC50 belongs to COc1ncc(NC(=O)C(=O)N2C[C@@H](C)CC[C@@H]2c2ccc3sc(C[C@@H](C)N(C)C)nc3c2)cc1C(N)=O [Compound 1317] , tested on PRMT5 (Homo sapiens, UniProt O14744)?
Output: > 7.30

Task: Return pIC50 measured with PRMT5 (Homo sapiens, UniProt O14744) given this compound: Cc1ccc([C@H]2CC[C@H](C)CN2C(=O)C(=O)Nc2cncc(C)c2)cc1 (single isomer, unassigned) [Compound 12]
Output: < 6.30

Task: I'm curious: which pIC50 was measured for CCc1cc(NC(=O)C(=O)N2C[C@@H](C)CC[C@@H]2c2ccc3sc([C@H]4C[C@@H](C)N(C)[C@@H](C)C4)nc3c2)cnc1N [Compound 1261] tested on PRMT5 (Homo sapiens, UniProt O14744)?
Output: > 7.30

Task: Give pIC50 (PRMT5 (Homo sapiens, UniProt O14744)) of the following compound: Cc1cncc(NC(=O)C(=O)N2C[C@H](C)CCC2c2cccc(F)c2)c1 (single isomer, unassigned) [Compound 93]
Output: < 6.30

Task: Field: pIC50 (PRMT5 (Homo sapiens, UniProt O14744)). Entry: CCc1cc(NC(=O)C(=O)N2C[C@@H](C)CC[C@@H]2c2ccc3sc([C@H]4CCN(C)C(C)(C)C4)nc3c2)cnc1N (single isomer, unassigned) [Compound 1397]
Output: > 7.30

Task: Lab note: need pIC50 with PRMT5 (Homo sapiens, UniProt O14744) for entry C[C@@H]1CC[C@@H](C2CCCC2)N(C(=O)C(=O)Nc2cncc(C(N)=O)c2)C1 (racemic) [Compound 172] , please look it up.
Output: 6.30 to 7.30

* * *

Target: PRMT5 (Homo sapiens, UniProt O14744)
Construct: purchased Viva (custom protein)
Assay: PRMT5 biochemical IC50 assay with MTA as cofactor
Conditions: PRMT5, MTA as cofactor; read-out: MTA IC50
measured-quantity: IC50

Task: I'd like to know its IC50. The compound in question is "COc1ncc(NC(=O)C(=O)N2C[C@@H](C)CC[C@@H]2c2ccc3sc(CN(C)C)nc3c2)cc1C(N)=O"
Output: < 50 nM

Task: Dear colleague, I am looking for the recorded IC50 of the following compound: C[C@@H]1CC[C@@H](c2cc(F)c3[nH]ncc3c2)N(C(=O)C(=O)Nc2cncc(C(N)=O)c2)C1 (single isomer, unassigned)
Output: < 50 nM

Task: Tell me the measured IC50 of "CCc1cc(NC(=O)C(=O)N2C[C@@H](C)CC[C@@H]2c2ccc3sc(C4(CN(C)C)CC4)nc3c2)cnc1N" , please.
Output: < 50 nM

Task: Given the entry Cc1cc(NC(=O)C(=O)N2C[C@H](C)CC[C@@H]2c2ccnn2C)cnc1N (racemic) , report its measured IC50.
Output: < 50 nM

Task: Item under review: Cc1ncc(NC(=O)C(=O)N2C[C@@H](C)CC[C@@H]2c2ccc3c(c2)CCC(=O)N3)cc1Cl (single isomer, unassigned) . Reported IC50?
Output: > 500 nM

Task: What IC50 value was documented for this compound, Cc1cc(NC(=O)C(=O)N2C[C@H](C)CC[C@H]2c2cc3cn[nH]c3s2)cnc1N (single isomer, unassigned) [Compound 1120] ?
Output: > 500 nM

Task: Value lookup for IC50; key = Cc1cc(NC(=O)C(=O)N2C[C@H](C)CC[C@H]2c2cccc(N(C)C)c2)cnc1N (single isomer, unassigned)
Output: < 50 nM

Task: Dear colleague, I am looking for the recorded IC50 of the following compound: CCc1cc(NC(=O)C(=O)N2C[C@@H](C)CC[C@@H]2c2ccc3c(c2)OCCN3)cnc1N (racemic)
Output: 50 to 500 nM

Task: IC50 lookup needed for C[C@@H]1CC[C@@H](c2ccc(F)c(O)c2)N(C(=O)C(=O)Nc2cncc(C(N)=O)c2)C1 (racemic) , thanks.
Output: < 50 nM

Task: What does the data say about its IC50? Entry: Cc1ccc([C@@H]2CC[C@@H](C)CN2C(=O)C(=O)Nc2cnc(N)c(C)c2)nc1 (racemic)
Output: 50 to 500 nM

Task: // query IC50 value for entry Cc1cc(NC(=O)C(=O)N2C[C@H](C)CC[C@H]2[C@@H]2CCC[C@H](O)C2)cnc1N (single isomer, unassigned)
Output: > 500 nM

Task: Please give the measured IC50 for this compound: CCc1cc(NC(=O)C(=O)N2C[C@@H](C)CC[C@@H]2c2ccc3sc([C@@H](C)N(C)C)nc3c2)cnc1N (single isomer, unassigned)
Output: < 50 nM

Task: Given C[C@@H]1CC[C@@H](C2CCC2)N(C(=O)C(=O)Nc2cncc(C(N)=O)c2)C1 (racemic) [Compound 155] , state its recorded IC50.
Output: < 50 nM

Task: What measured IC50 goes with CCc1cc(NC(=O)C(=O)N2C[C@@H](C)CC[C@@H]2c2ccc(F)cc2)cnc1N (racemic) ?
Output: < 50 nM

Task: Report IC50 for CC(C)C1CCCCN1C(=O)C(=O)Nc1cncc(C(N)=O)c1 (stereo not shown) please.
Output: 50 to 500 nM

Task: # input compound: CCc1cc(NC(=O)C(=O)N2C[C@@H](C)CC[C@@H]2c2ccc3sc([C@H]4CN(C)CCO4)nc3c2)cnc1N [Compound 1202] ; wanted: its IC50
Output: < 50 nM

Task: Need IC50 of Cc1cc(NC(=O)C(=O)N2C[C@@H](C)CC[C@@H]2c2ccc3sc(-c4cnn(C)c4)nc3c2)cnc1N (racemic) , thanks.
Output: < 50 nM

Task: IC50 lookup needed for Cc1cc(NC(=O)C(=O)N2C[C@H](C)CC[C@H]2c2cc(F)cc(F)c2)cnc1N (single isomer, unassigned) , thanks.
Output: > 500 nM

Task: Look up IC50: "CCc1cc(NC(=O)C(=O)N2C[C@@H](C)CC[C@@H]2c2ccc3sc(C45CCN(CC4)C5)nc3c2)cnc1N"
Output: < 50 nM

Task: I would be grateful if you could share the reported IC50 for "COc1ncc(NC(=O)C(=O)N2C[C@@H](C)CC[C@@H]2c2cccc(N3CCN(C)CC3)c2)cc1C(N)=O" .
Output: < 50 nM

Task: Entry CCc1cc(NC(=O)C(=O)N2C[C@H](C)CC[C@H]2c2ccc(-c3cncs3)cc2)cnc1N (single isomer, unassigned) : reported IC50 = ?
Output: < 50 nM

Task: Would you kindly share the measured IC50 for COc1ncc(NC(=O)C(=O)N2C[C@H](C)CC[C@H]2c2ccc3c(c2)CCC(=O)N3)cc1C(N)=O (single isomer, unassigned) ?
Output: < 50 nM

Task: Field request: IC50 | item: C[C@H]1CC[C@H](c2ccc3sc(C4CCN(C)CC4)nc3c2)N(C(=O)C(=O)Nc2cnc(OC(F)(F)F)c(C(N)=O)c2)C1 (single isomer, unassigned)
Output: < 50 nM

Task: Form field: reported IC50 of Cc1cc(NC(=O)C(=O)N2C[C@@H](C)CC[C@@H]2c2cccc3c2CCN3)cnc1N (single isomer, unassigned)
Output: > 500 nM

Task: Consider the compound C[C@@H]1CC[C@@H](c2ccc(C3(O)CCC3)cc2)N(C(=O)C(=O)Nc2cncc(C(N)=O)c2)C1 (racemic) and give its measured IC50.
Output: 50 to 500 nM
